- System: Human umbilical vein endothelial cell
- protocolText: In Vitro Angiogenesis Assay (morphogenesis / tube formation on Matrigel, ECMatrix kit)
- Format: cell-based
- statedConditions: Homo sapiens, Endothelial cell; estimated; read-out: EC50 value for anti-antigenic effect
assayEndpoint: pEC50
Note on pEC50: it is the negative log10 of concentration, concentration in mol/L.

Query string: Hello, please tell me recorded pEC50 for this one: COc1ccc(NCC(O)Cn2cnc3c2c(=O)n(C)c(=O)n3C)cc1 (stereo not shown)
Result string: 6.60

----------
- System: VEGFR
- protocolText: Assay of VEGF Receptor Tyrosine Kinase Activity (VEGFR immunoprecipitated from cell lysate, non-radioactive PTK ELISA)
- Assay type: biochemical
- statedConditions: VEGFR immunoprecipitated from cell lysate with VEGFR specific antibody, read-out: IC50 for inhibiting VEGFR kinase
- Text: Protein Tyrosine Kinases (PTKs) perform a critical role in signal transduction pathways that control cell proliferation, differentiation, metabolism, and apoptosis. […] CHEMICON's non-radioactive Tyrosine Kinase Activity Assay provides a simple, convenient and specific method for quantification and comparative determination of a wide range of PTKs. […] After testing the anti-antigenic effects of Example 1, the ability of this compound to inhibit the VEGFR linked tyrosine kinase activity was measured. […]
assayEndpoint: pIC50
Field pIC50 (float): negative decimal logarithm of the concentration in molar.

Query string: Supply measured pIC50 of COc1ccc(NCC(O)Cn2cnc3c2c(=O)n(C)c(=O)n3C)cc1 (stereo not shown) in your reply.
Result string: 6.40
